Below, each entry is listed alongside its reported AUC(0-t).
assay: Pharmacokinetic evaluation in mice; type: in vivo, male ICR mice; conditions: male, ICR, mouse, plasma, iv, 2 mg/kg
Quantity: AUC(0-t) (µg·h/mL)

Compound	Unit label	Number
C=CC(=O)N1CC2(CCN(c3nc(OC4CC5(CCN(CCOC)CC5)C4)nc4c(OCC(F)(F)F)c(-c5c(C)ccc6[nH]ncc56)c(C5CC5)cc34)CC2)C1 [Compound 131]	µg·h/mL	11.3
C=CC(=O)N1CC2(CCN(c3nc(OC4CCN(CCOC)CC4)nc4c(OCC(F)(F)F)c(-c5c(C)ccc6[nH]ncc56)c(C5CC5)cc34)CC2)C1 [B, reference compound]	µg·h/mL	7.82
C=CC(=O)N1CC2(CCN(c3nc(N4CC(N5CCC5)C4)nc4c(OCC(F)(F)F)c(-c5c(C)ccc6[nH]ncc56)c(C5CC5)cc34)CC2)C1 [Compound 142]	µg·h/mL	52
C=CC(=O)N1CC2(CCN(c3nc(N4CC(N5CCCC5)C4)nc4c(OCC(F)(F)F)c(-c5c(C)ccc6[nH]ncc56)c(C5CC5)cc34)CC2)C1 [Compound 171]	µg·h/mL	26.5

====

experiment: Pharmacokinetic evaluation in mice; assay type: in vivo, male ICR mice; details: male, ICR, mouse, plasma, po, 10 mg/kg, 0.5% CMC-Na suspension

Molecule	Unit label	AUC(0-t)
C=CC(=O)N1CC2(CCN(c3nc(OC4CCN(CCOC)CC4)nc4c(OCC(F)(F)F)c(-c5c(C)ccc6[nH]ncc56)c(C5CC5)cc34)CC2)C1 [B, reference compound]	ng·h/mL	10300
C=CC(=O)N1CC2(CCN(c3nc(N4CC(N5CCCC5)C4)nc4c(OCC(F)(F)F)c(-c5c(C)ccc6[nH]ncc56)c(C5CC5)cc34)CC2)C1	ng·h/mL	35700
C=CC(=O)N1CC2(CCN(c3nc(N4CC(N5CCC5)C4)nc4c(OCC(F)(F)F)c(-c5c(C)ccc6[nH]ncc56)c(C5CC5)cc34)CC2)C1	ng·h/mL	46000
C=CC(=O)N1CC2(CCN(c3nc(OC4CC5(CCN(CCOC)CC5)C4)nc4c(OCC(F)(F)F)c(-c5c(C)ccc6[nH]ncc56)c(C5CC5)cc34)CC2)C1	ng·h/mL	22300

====

experiment: Pharmacokinetic evaluation in mice; assay type: in vivo, male ICR mice; details: male, ICR, mouse, plasma, iv, 2 mg/kg, read-out: Vss
Vd for assorted compounds
Quantity: Vd (L/kg)

Compound	Quantity	Number
C=CC(=O)N1CC2(CCN(c3nc(N4CC(N5CCCC5)C4)nc4c(OCC(F)(F)F)c(-c5c(C)ccc6[nH]ncc56)c(C5CC5)cc34)CC2)C1	Vd	0.505
C=CC(=O)N1CC2(CCN(c3nc(OC4CC5(CCN(CCOC)CC5)C4)nc4c(OCC(F)(F)F)c(-c5c(C)ccc6[nH]ncc56)c(C5CC5)cc34)CC2)C1	Vd	2.1
C=CC(=O)N1CC2(CCN(c3nc(N4CC(N5CCC5)C4)nc4c(OCC(F)(F)F)c(-c5c(C)ccc6[nH]ncc56)c(C5CC5)cc34)CC2)C1	Vd	0.187
C=CC(=O)N1CC2(CCN(c3nc(OC4CCN(CCOC)CC4)nc4c(OCC(F)(F)F)c(-c5c(C)ccc6[nH]ncc56)c(C5CC5)cc34)CC2)C1 [B, reference compound]	Vd	1.01

====

tested on: pERK level in H358 cells; assay: pERK and ERK protein content assay in H358 cells (ELISA); assay type: cell-based; details: Homo sapiens, NCI-H358, compound 1 μM, 24 h, pERK/ERK ratio compared with DMSO group, read-out: Inhibition rate (%) of pERK level
Quantity: inhibition at 1 µM

Compound	Quantity	Result
C=CC(=O)N1CC2(CCN(c3nc(N4CC5(CC(N6CCC[C@H]6C)C5)C4)nc4c(OCC(F)(F)F)c(-c5c(C)ccc6[nH]ncc56)c(C5CC5)cc34)CC2)C1	inhibition at 1 µM	> 90%
C=CC(=O)N1CC2(CCN(c3nc(N4CCC5(CC4)CC(N)C5)nc4c(OCC(F)(F)F)c(-c5c(C)ccc6[nH]ncc56)c(C5CC5)cc34)CC2)C1	inhibition at 1 µM	> 90%
C=C(F)C(=O)N1CC2(CCN(c3nc(N4CCC5(CCN(CCOC)CC5)C4)nc4c(OCC(F)(F)F)c(-c5c(C)ccc6[nH]ncc56)c(C5CC5)cc34)CC2)C1	inhibition at 1 µM	> 90%
C=CC(=O)N1CC2(CCN(c3nc(N4CCN(C5CCOCC5)CC4)nc4c(OCC(F)(F)F)c(-c5c(C)ccc6[nH]ncc56)c(C5CC5)cc34)CC2)C1	inhibition at 1 µM	> 90%
C=CC(=O)N1CC2(CCN(c3nc(N4CCC5(CCN(CCOC)CC5)C4)nc4c(OCC(F)(F)F)c(-c5c(C)ccc6[nH]ncc56)c(C5CC5)cc34)CC2)C1	inhibition at 1 µM	> 90%
C=CC(=O)N1CC2(CCN(c3nc(N4CC5(CC(N6CC(C)C6)C5)C4)nc4c(OCC(F)(F)F)c(-c5c(C)ccc6[nH]ncc56)c(C5CC5)cc34)CC2)C1	inhibition at 1 µM	> 90%
C=CC(=O)N1CC2(CCN(c3nc(N4CC5(C4)[C@@H](F)CCN5C)nc4c(OCC(F)(F)F)c(-c5c(C)ccc6[nH]ncc56)c(C5CC5)cc34)CC2)C1	inhibition at 1 µM	> 90%
C=CC(=O)N1CC2(CCN(c3nc(OC4CN(CCOC)C4)nc4c(OCC(F)(F)F)c(-c5c(C)ccc6[nH]ncc56)c(C5CC5)cc34)CC2)C1	inhibition at 1 µM	> 90%
C=CC(=O)N1CC2(CCN(c3nc(N4CC5(C4)[C@H](OC)CCN5C)nc4c(OCC(F)(F)F)c(-c5c(C)ccc6[nH]ncc56)c(C5CC5)cc34)CC2)C1	inhibition at 1 µM	> 90%
C=C(F)C(=O)N1CC2(CCN(c3nc(N4CCC5(CCN(CCOC)C5)CC4)nc4c(OCC(F)(F)F)c(-c5c(C)ccc6[nH]ncc56)c(C5CC5)cc34)CC2)C1	inhibition at 1 µM	50 to 90%
C=CC(=O)N1CC2(CCN(c3nc(N4CC(N5CCC[C@H]5C#N)C4)nc4c(OCC(F)(F)F)c(-c5c(C)ccc6[nH]ncc56)c(C5CC5)cc34)CC2)C1	inhibition at 1 µM	50 to 90%
C=CC(=O)N1CC2(CCN(c3nc(N4CC[C@@H](N5CCC(OC)CC5)C4)nc4c(OCC(F)(F)F)c(-c5c(C)ccc6[nH]ncc56)c(C5CC5)cc34)CC2)C1	inhibition at 1 µM	50 to 90%
C=CC(=O)N1CC2(CCN(c3nc(N4CC[C@H](N(C)CC)C4)nc4c(OCC(F)(F)F)c(-c5c(C)ccc6[nH]ncc56)c(C5CC5)cc34)CC2)C1	inhibition at 1 µM	> 90%
C=C(F)C(=O)N1CC2(CCN(c3nc(OC4CCN(CCOC)CC4)nc4c(OCC(F)(F)F)c(-c5c(N)c(Cl)cc(Cl)c5F)c(C5CC5)cc34)CC2)C1	inhibition at 1 µM	> 90%
C=CC(=O)N1CC2(CCN(c3nc(OC4C(C)CS(=O)(=O)CC4C)nc4c(OCC(F)(F)F)c(-c5c(C)ccc6[nH]ncc56)c(C5CC5)cc34)CC2)C1 (stereo not drawn)	inhibition at 1 µM	> 90%
C=CC(=O)N1CC2(CCN(c3nc(N(C)CCN4CC(C#N)C4)nc4c(OCC(F)(F)F)c(-c5c(C)ccc6[nH]ncc56)c(C5CC5)cc34)CC2)C1	inhibition at 1 µM	50 to 90%
C=CC(=O)N1CC2(CCN(c3nc(N4CCC(N5CCOCC5)CC4)nc4c(OCC(F)(F)F)c(-c5c(C)ccc6[nH]ncc56)c(C5CC5)cc34)CC2)C1	inhibition at 1 µM	50 to 90%
C=CC(=O)N1CC2(CCN(c3nc(N4CC(N5CCC[C@H]5CO)C4)nc4c(OCC(F)(F)F)c(-c5c(C)ccc6[nH]ncc56)c(C5CC5)cc34)CC2)C1	inhibition at 1 µM	> 90%
C=CC(=O)N1CC2(CCN(c3nc(N4CC[C@@H](N5CCC(F)CC5)C4)nc4c(OCC(F)(F)F)c(-c5c(C)ccc6[nH]ncc56)c(C5CC5)cc34)CC2)C1	inhibition at 1 µM	> 90%
C=CC(=O)N1CC2(CCN(c3nc(N4CC(N5CC(N(C)C)C5)C4)nc4c(OCC(F)(F)F)c(-c5c(C)ccc6[nH]ncc56)c(C5CC5)cc34)CC2)C1	inhibition at 1 µM	> 90%
C=CC(=O)N1CC2(CCN(c3nc(N4CC[C@@H](N5CC(OC)C5)C4)nc4c(OCC(F)(F)F)c(-c5c(C)ccc6[nH]ncc56)c(C5CC5)cc34)CC2)C1	inhibition at 1 µM	> 90%

====

// reported inhibition at 1 µM per item
tested on: pERK level in H358 cells; assay: pERK and ERK protein content assay in H358 cells (ELISA); format: cell-based; settings: Homo sapiens, NCI-H358, compound 1 μM, 24 h, pERK/ERK ratio compared with DMSO group, read-out: Inhibition rate (%) of pERK level
Quantity: inhibition at 1 µM

> print(dat)
                            chemical.string  result
1  C=CC(=O)N1CC2(CCN(c3nc(N4CC[C@@H](N5C6CCC5CC6)C4)nc4c(OCC(F)(F)F)c(-c5c(C)ccc6[nH]ncc56)c(C5CC5)cc34)CC2)C1   > 90%
2  C=CC(=O)N1CC2(CCN(c3nc(N4CC5(CCN(CCCOC)CC5)C4)nc4c(OCC(F)(F)F)c(-c5c(C)ccc6[nH]ncc56)c(C5CC5)cc34)CC2)C1   > 90%
3  C=CC(=O)N1CC2(CCN(c3nc(N(C)CCN4CC[C@H](C)C4)nc4c(OCC(F)(F)F)c(-c5c(C)ccc6[nH]ncc56)c(C5CC5)cc34)CC2)C1   > 90%
